# Lookup of reported pKd keyed by entry
Target: T1, StrepII-tagged human ROR1 extracellular domain (human, UniProt Q01973 30-406)
T1 construct: extracellular domain; also called ROR1-strep; strep-tagged human ROR1
T1 sequence (Q01973 other isoform, or with tags, fused parts or gaps): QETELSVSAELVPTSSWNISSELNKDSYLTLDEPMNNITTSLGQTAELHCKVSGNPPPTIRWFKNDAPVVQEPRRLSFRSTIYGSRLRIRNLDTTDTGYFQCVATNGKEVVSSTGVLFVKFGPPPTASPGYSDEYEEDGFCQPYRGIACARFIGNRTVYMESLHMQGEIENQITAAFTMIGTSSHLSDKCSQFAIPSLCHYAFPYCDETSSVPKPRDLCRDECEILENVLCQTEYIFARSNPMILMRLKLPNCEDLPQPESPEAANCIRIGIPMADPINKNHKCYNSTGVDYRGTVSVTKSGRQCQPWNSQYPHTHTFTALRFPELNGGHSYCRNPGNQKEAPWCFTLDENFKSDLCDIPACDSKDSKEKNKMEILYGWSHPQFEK
Assay: SPR (Biacore T200), mAb captured by anti-human Fc-gamma IgG on CM5, ROR1-strep as analyte
Scale: pKd equals -log10([C]), with [C] in mol/L.

Q. For the binder HuXBR1-402(15) (mAb290) (antibody, human IgG1, V domains shown, Humanized IgG (human IgG1 constant regions, lambda)) VH: QVQLQESGPGLVKPSETLSLTCTVSGFDISSYYMSWVRQPPGKGLEWIGAIGISGNAYYASWAKSRVTISRDTSKNQFSLKLSSVTAADTAVYYCARDHPTYGMDLWGPGTLVTVSS VL: SYELTQPPSVSVAPGKTARITCEGNNIGSKAVHWYQQKPGQAPVLVIYDDDERPSGIPERFSGSNSGNTATLTISRVEAGDEADYYCQVWDSSAYVFGGGTKLTVLG , report pKd.
A. 8.45

Q. For the binder HuXBR1-402(19) (mAb295) (antibody, human IgG1, V domains shown, Humanized IgG (human IgG1 constant regions, lambda)) VH: QVQLQESGPGLVKPSETLSLTCTVSGFDISSYYMSWVRQPPGNGLEWIGAIGISGNAYYASWAKSRVTISRDTSKNQFSLKLSSVTAADTAVYYCARDHPTYGMDLWGPGTLVTVSS VL: SYELTQPPSVSVAPGKTARITCEGNNIGSKAVHWYQQKPGQAPVLVIYDDDERPSGIPERFSGSNSGNTATLTISRVEAGDEADYYCQVWDSSAYVFGGGTKLTVLG , report pKd.
A. 8.53
